Taken from a melting point compilation (Tetko et al.; mined from patent text by program, amines drawn as free bases though some values may be those of a salt).

Assignment: determine reported melting point for the given molecules.

{"molecule": "O=c1[nH]c2c([nH]c1=O)C(O)c1ccccc1-2 (stereo not given)", "melting point": "> 300 °C"}
{"molecule": "CS(=O)(=O)Nc1cc(O)ccc1Oc1ccccc1", "melting point": "138 to 140 °C"}
{"molecule": "CC(=O)c1ccc(-c2cnn3c(O)ncnc23)cc1", "melting point": "> 300 °C"}
{"molecule": "CN(C)C1CCN(c2nc3c(cc2F)c(=O)c(C(=O)O)cn3CCF)C1 (stereo not given)", "melting point": "247 to 249 °C"}
{"molecule": "CNC(=O)[C@H]1CN(c2cc(F)c3c(c2)CCC(=O)N3C)C(=O)O1", "melting point": "264 to 265 °C"}

Provide the reported melting point of each entry below, same order.
1. O=C(Nc1ccc(-n2nc(C(F)(F)F)cc2C(F)(F)F)cc1)c1sccc1Br
2. Cc1cc2c(cc1-c1ccc(F)cc1)NC(=O)CC(c1cccc(-n3ccnc3)c1)=N2
3. CCCCNC(=S)N1CCc2[nH]cnc2C1CC (stereo not given)

Output:
["139 to 140 °C", "196 °C", "180 °C"]

Provide the reported melting point of each entry below, same order.
1. OCc1ccc(-c2coc(-c3cn([C@H]4CN5CCC4CC5)nn3)c2)cc1
2. CC(C)n1nc(-c2cc(C(=O)N3CCN(C)CC3)cnc2-c2ccccc2)ccc1=O

Output:
["202 °C", "165 to 166 °C"]
